assay-target: T1, recombinant biotinylated human PAR2 extracellular domain (residues 1-75), N-terminal AviTag, C-terminal Flag … (human, UniProt P55085 26-75, biotin on the AviTag (enzymatic biotinylation))
T1 construct: also called Bio-human-PAR2 ECD; human PAR2 ECD; not shown: N-terminal AviTag (Avidity LLC); C-terminal Flag and poly Histidine tags
T1 sequence (P55085 26-75): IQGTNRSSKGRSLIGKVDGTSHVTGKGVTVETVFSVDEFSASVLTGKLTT
test-method-notes: HTRF competition with Par0067 IgG, scFv
metric: Fold IC50 pH 7.4 (Variant v Par0067) (fold)
API: value field is a number in fold; no unit string.

| binder | unit-of-measure | Fold IC50 pH 7.4 (Variant v Par0067) |
| --- | --- | --- |
| PaB670081 scFv (scFv, V domains shown, purified scFv; also called ZZ1OZA-C01) VH: EVQLLESGGGLVQPGGSLRLSCAASGFTFSSYAMNWVRQAPGKGLEWVSTISHSGHHISHHDSHHGRFTISRDNSKNTLYLQMNSLRAEDTAVYYCARINNDPMDVWGQGTLVTVSS VL: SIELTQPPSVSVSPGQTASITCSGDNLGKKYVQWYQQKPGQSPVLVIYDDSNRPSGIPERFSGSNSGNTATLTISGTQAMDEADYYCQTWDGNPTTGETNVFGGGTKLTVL | fold | 15.6 |

What value of Fold IC50 pH 7.4 (Variant v Par0067) has been reported for the following binder? PaB670097 scFv (scFv, V domains shown, purified scFv; also called ZZ1ODT-E11) VH: EVQLLESGGGLVQPGGSLRLSCAASGFTFSSYAMNWVRQAPGKGLEWVSTIHHSGHLHSYHHHVKGRFTISRDNSKNTLYLQMNSLRAEDTAVYYCARINNDPMDVWGQGTLVTVSS VL: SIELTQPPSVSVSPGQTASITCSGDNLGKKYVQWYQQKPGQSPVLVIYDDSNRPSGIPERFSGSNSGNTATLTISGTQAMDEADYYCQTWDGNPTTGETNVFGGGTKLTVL
6.6

Then what about the binder PaB670045 scFv (scFv, V domains shown, purified scFv; also called ZZ1KX3-F01) VH: EVQLLESGGGLVQPGGSLRLSCAASGFTFSSYAMNWVRQAPGKGLEWVSTISYSGSLISYADSVKGRFTISRDNSKNTLYLQMNSLRAEDTAVYYCARIHHDPMDVWGQGTLVTVSS VL: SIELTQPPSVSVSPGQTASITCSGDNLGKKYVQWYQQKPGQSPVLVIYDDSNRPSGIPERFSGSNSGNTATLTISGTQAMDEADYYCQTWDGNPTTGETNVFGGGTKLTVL ?
3

Now give it for PaB670066 scFv (scFv, V domains shown, purified scFv; also called ZZ1KX6-D05) VH: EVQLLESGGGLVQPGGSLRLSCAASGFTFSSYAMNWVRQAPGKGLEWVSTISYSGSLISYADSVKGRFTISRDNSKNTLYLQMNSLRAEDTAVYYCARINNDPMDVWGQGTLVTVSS VL: SIELTQPPSVSVSPGQTASITCSGDNLGKKYVQWYQQKPGQSPVLVIYDDSNRPSGIPERFSGSNSGNTATLTISGTQAMDEADYYCHHWHGNHHTGETNHFGGGTKLTVL too.
15.8

Note, next up: PaB670108 scFv (scFv, V domains shown, purified scFv; also called ZZ1RD3-H03) VH: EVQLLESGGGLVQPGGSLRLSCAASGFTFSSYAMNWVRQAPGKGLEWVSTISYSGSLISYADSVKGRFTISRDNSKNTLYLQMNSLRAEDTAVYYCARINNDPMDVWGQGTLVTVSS VL: SIELTQPPSVSVSPGQTASITCSGDNLGKKYVQWYQQKPGQSPVLVIYDDSNRPSGIPERFSGSNSGNTATLTISGTQAMDEADYYCQHWHGHHHTGETNVFGGGTKLTVL
8.8
